- assayed target: SHP2-C SH2
- method: SH2 binding enrichment of the phosphorylated peptide, bacterial display (enrichment ratio); higher = better substrate or ligand; peptides without Tyr show the background
Please go through the items and note down their SH2 binding enrichment.
Answer with the value's number alone.

Param readout = SH2 binding enrichment; param system = SHP2-C SH2; param query = TRNRDYDDIDD [TTYH2_Y424] ; response: value
0.766

Param readout = SH2 binding enrichment; param system = SHP2-C SH2; param query = HIPFRYPKEFQ [IDS_Y234] ; response: value
1.12

Param readout = SH2 binding enrichment; param system = SHP2-C SH2; param query = AVRVFYRKCPR [EPHB2_Y194] ; response: value
0.529

Param readout = SH2 binding enrichment; param system = SHP2-C SH2; param query = AVRFIYTIDGS [DCX_Y105_G100A_YF] ; response: value
0.988

Param readout = SH2 binding enrichment; param system = SHP2-C SH2; param query = TGNGFYFRVFS [MYBPC3_Y1136_I1131T_YF] ; response: value
0.62

Param readout = SH2 binding enrichment; param system = SHP2-C SH2; param query = LGQRIYQYIRS [DYRK1B_Y271_Q275R] ; response: value
1.51

Param readout = SH2 binding enrichment; param system = SHP2-C SH2; param query = HNLDYYKQTTN [FGFR3_Y648_K650Q] ; response: value
0.883

Param readout = SH2 binding enrichment; param system = SHP2-C SH2; param query = EEGNPSYSSAR [MCCC2_Y520_Y520S] ; response: value
0.647

Param readout = SH2 binding enrichment; param system = SHP2-C SH2; param query = MSYDRYMAICH [OR2A5_Y123] ; response: value
0.605

Param readout = SH2 binding enrichment; param system = SHP2-C SH2; param query = FEGAIYRKDVG [GART_Y417] ; response: value
0.582

Param readout = SH2 binding enrichment; param system = SHP2-C SH2; param query = KHCEDYVFSFN [DSC1_Y846_C848F_YF] ; response: value
0.817

Param readout = SH2 binding enrichment; param system = SHP2-C SH2; param query = CTTIHQNFMCN [TP53_Y234_Y234Q_YF] ; response: value
1.02

Param readout = SH2 binding enrichment; param system = SHP2-C SH2; param query = RSLLQYGGSAN [ANK1_Y624] ; response: value
0.716

Param readout = SH2 binding enrichment; param system = SHP2-C SH2; param query = RLRKYYLGKYL [KLB_Y906] ; response: value;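 also: peptide library displayed on the E. coli surface as eCPX fusions, selected cells deep-sequenced, score is each peptide's frequency after selection divided by its frequency in the input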
0.441
